# % Activation values compiled below
- System name: ΔF508-CFTR (Homo sapiens, UniProt P13569, DEL508-508)
- Construct: host or cells: CFBE41o-, doxycycline-inducible
- Sequence (P13569 with tags, fused parts or gaps DEL508-508): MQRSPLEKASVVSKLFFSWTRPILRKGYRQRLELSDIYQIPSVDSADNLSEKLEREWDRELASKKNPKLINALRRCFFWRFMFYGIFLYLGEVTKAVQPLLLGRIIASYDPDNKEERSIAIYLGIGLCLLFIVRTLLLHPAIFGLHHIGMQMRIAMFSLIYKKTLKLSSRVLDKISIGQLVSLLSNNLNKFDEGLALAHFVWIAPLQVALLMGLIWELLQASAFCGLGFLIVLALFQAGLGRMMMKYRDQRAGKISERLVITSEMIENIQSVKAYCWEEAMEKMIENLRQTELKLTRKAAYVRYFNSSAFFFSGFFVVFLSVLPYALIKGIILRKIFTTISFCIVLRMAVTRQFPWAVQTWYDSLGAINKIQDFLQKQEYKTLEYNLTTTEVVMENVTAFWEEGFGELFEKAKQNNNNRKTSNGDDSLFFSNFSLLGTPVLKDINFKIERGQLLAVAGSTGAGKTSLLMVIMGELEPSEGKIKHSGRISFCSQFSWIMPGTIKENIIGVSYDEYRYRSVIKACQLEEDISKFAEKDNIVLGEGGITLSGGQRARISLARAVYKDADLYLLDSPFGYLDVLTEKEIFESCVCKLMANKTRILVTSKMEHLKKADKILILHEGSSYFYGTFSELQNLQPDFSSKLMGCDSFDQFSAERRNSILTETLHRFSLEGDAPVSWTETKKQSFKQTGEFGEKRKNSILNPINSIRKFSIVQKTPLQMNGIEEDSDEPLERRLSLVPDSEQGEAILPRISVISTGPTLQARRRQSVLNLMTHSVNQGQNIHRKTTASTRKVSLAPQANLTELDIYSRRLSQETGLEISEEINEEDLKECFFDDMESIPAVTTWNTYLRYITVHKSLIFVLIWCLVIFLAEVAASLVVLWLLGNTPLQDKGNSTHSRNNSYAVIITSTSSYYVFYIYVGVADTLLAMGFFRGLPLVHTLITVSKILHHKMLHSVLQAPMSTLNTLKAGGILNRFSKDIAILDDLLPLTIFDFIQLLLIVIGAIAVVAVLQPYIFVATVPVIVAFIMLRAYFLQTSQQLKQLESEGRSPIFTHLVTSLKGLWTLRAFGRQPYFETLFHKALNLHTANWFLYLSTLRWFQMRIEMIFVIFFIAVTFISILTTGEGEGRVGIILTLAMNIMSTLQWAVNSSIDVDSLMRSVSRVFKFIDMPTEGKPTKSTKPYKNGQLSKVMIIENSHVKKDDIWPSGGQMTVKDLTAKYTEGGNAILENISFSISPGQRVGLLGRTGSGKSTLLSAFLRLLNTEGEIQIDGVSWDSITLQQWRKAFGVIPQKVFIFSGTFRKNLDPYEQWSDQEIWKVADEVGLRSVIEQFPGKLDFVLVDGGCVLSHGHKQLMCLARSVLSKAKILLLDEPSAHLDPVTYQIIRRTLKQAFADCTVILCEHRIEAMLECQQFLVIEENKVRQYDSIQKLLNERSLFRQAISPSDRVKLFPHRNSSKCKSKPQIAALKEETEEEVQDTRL
- Run description: CFTR cell surface levels using HRP-tagged ΔF508-CFTR expressing CFBE cells, intrinsic corrector capacity
- Assay type: cell-based
- Test parameters: HRP-tagged ΔF508-CFTR expressing CFBE cells; intrinsic corrector capacity (no co-corrector); 33° C., 20 hours

Compound	System name	% Activation
CC(=O)N1CCC(Oc2cc(C(=O)O)nc3c2c(C2CCC2)nn3-c2ccccc2)CC1 [compound 612]	ΔF508-CFTR (Homo sapiens, UniProt P13569, DEL508-508)	109.5%
COCC(C)N1CCN(c2cc(C(=O)O)nc3c2c(C2CCC2)nn3-c2ccccc2)CC1 (centres unmarked) [compound 682]	ΔF508-CFTR (Homo sapiens, UniProt P13569, DEL508-508)	172.9%
COc1cccc(-n2nc(C3CCC3)c3c(N4CCC(N5CCOCC5)CC4)cc(C(=O)O)nc32)c1 [compound 822]	ΔF508-CFTR (Homo sapiens, UniProt P13569, DEL508-508)	272.3%
CC(C)c1nn(-c2ccc(F)cc2)c2nc(C(=O)O)cc(N3CCC4(CCO4)CC3)c12 [compound 398]	ΔF508-CFTR (Homo sapiens, UniProt P13569, DEL508-508)	96.49%
O=C(O)c1cc(OC2CCCCCC2)c2c(C3CCC3)nn(-c3ccccc3)c2n1 [compound 648]	ΔF508-CFTR (Homo sapiens, UniProt P13569, DEL508-508)	90.745%
CC(C)N(CCOc1cc(C(=O)O)nc2c1c(C1CCC1)nn2-c1ccccc1)C1COC1 [compound 478]	ΔF508-CFTR (Homo sapiens, UniProt P13569, DEL508-508)	125.2%
CC1CCN(CCC2CCN(c3cc(C(=O)O)nc4c3c(C3CCC3)nn4-c3ccccc3)CC2)CC1 [compound 687]	ΔF508-CFTR (Homo sapiens, UniProt P13569, DEL508-508)	264.95%
COC[C@@H]1CCN(CC2CCN(c3cc(C(=O)O)nc4c3c(C3CCC3)nn4-c3ccccc3)CC2)C1 [compound 802]	ΔF508-CFTR (Homo sapiens, UniProt P13569, DEL508-508)	218%

---

- System name: ΔF508-CFTR (Homo sapiens, UniProt P13569, DEL508-508)
- Construct: host or cells: CFBE41o-, doxycycline-inducible
- Run description: CFTR cell surface levels using HRP-tagged ΔF508-CFTR expressing CFBE cells, in the presence of a co-corrector
- Type: cell-based
- Test parameters: HRP-tagged ΔF508-CFTR expressing CFBE cells, in the presence of 3 μM co-corrector
# % Activation values compiled below

Compound	System name	% Activation / %
CC(C)c1nn(C2CCCOC2)c2nc(C(=O)O)cc(-c3ccc(N4CCOCC4)cc3)c12 (stereo not shown) [compound 68]	ΔF508-CFTR (Homo sapiens, UniProt P13569, DEL508-508)	274.9
Cc1cccc(-n2nc(C(C)C)c3c(N4CC5CN(CC#N)CC5C4)cc(C(=O)O)nc32)c1 (stereo not shown) [compound 226]	ΔF508-CFTR (Homo sapiens, UniProt P13569, DEL508-508)	352.2
O=C(O)c1cc(N2CC(OCC(F)F)C2)c2c(C3CCC3)nn(-c3ccccc3)c2n1 [compound 513]	ΔF508-CFTR (Homo sapiens, UniProt P13569, DEL508-508)	349.6
CN1CCN(CCC2CCN(c3cc(C(=O)O)nc4c3c(C3CCC3)nn4-c3ccccc3)CC2)CC1 [compound 695]	ΔF508-CFTR (Homo sapiens, UniProt P13569, DEL508-508)	385.5

---

- System name: ΔF508-CFTR (Homo sapiens, UniProt P13569, DEL508-508)
- Construct: host or cells: CFBE41o-, doxycycline-inducible
- Run description: CFTR cell surface levels using HRP-tagged ΔF508-CFTR expressing CFBE cells, in the presence of a co-corrector
- Type: cell-based
# EC50 values compiled below

Compound	System name	Result unit	EC50
O=C(O)c1cc(N2CCC(N3CCCCC3)CC2)c2c(C3CCC3)nn(-c3ccccc3)c2n1	ΔF508-CFTR (Homo sapiens, UniProt P13569, DEL508-508)	µM	0.396
CC(C)(C)OC(=O)NC[C@@H]1CCN(c2cc(C(=O)O)nc3c2c(C2CCC2)nn3-c2ccccc2)C1	ΔF508-CFTR (Homo sapiens, UniProt P13569, DEL508-508)	µM	0.943
O=C(O)c1cc(NC[C@@H]2CCCO2)c2c(C3CCC3)nn(-c3ccccc3)c2n1	ΔF508-CFTR (Homo sapiens, UniProt P13569, DEL508-508)	µM	1.13
CC(C)(C)OC(=O)N1CC[C@@H]2CN(c3cc(C(=O)O)nc4c3c(C3CCC3)nn4-c3ccccc3)CC[C@@H]21 (racemic)	ΔF508-CFTR (Homo sapiens, UniProt P13569, DEL508-508)	µM	0.0617
COCCN1CCN(c2cc(C(=O)O)nc3c2c(C2CCC2)nn3-c2ccccc2)CC1	ΔF508-CFTR (Homo sapiens, UniProt P13569, DEL508-508)	µM	0.328
CC(C)c1nn(-c2ccc(F)cc2)c2nc(C(=O)O)cc(N3CCC(CN4CCCC4)CC3)c12	ΔF508-CFTR (Homo sapiens, UniProt P13569, DEL508-508)	µM	1.08
O=C(O)c1cc(NCC2CCOCC2)c2c(C3CCC3)nn(-c3ccccc3)c2n1	ΔF508-CFTR (Homo sapiens, UniProt P13569, DEL508-508)	µM	2.03

---

- System name: ΔF508-CFTR (Homo sapiens, UniProt P13569, DEL508-508)
- Construct: host or cells: CFBE41o-, doxycycline-inducible
- Run description: CFTR cell surface levels using HRP-tagged ΔF508-CFTR expressing CFBE cells, intrinsic corrector capacity
- Type: cell-based
- Test parameters: HRP-tagged ΔF508-CFTR expressing CFBE cells; intrinsic corrector capacity (no co-corrector); 33° C., 20 hours
- Source text: Measuring CFTR Cell Surface Levels Using HRP-Tagged AF508-CFTR Expressing CFBE Cells The HRP-tagged AF508-CFTR cell assay measures the expression of CFTR-ΔF508 at the plasma membrane. […] When HRP-tagged AF508-CFTR is present at the plasma membrane, the HRP enzyme activity can be measured. The amount of CFTR-ΔF508 that can be rescued to the plasma membrane is correlated with the amount of functional enzyme that can be measured. […]
# % Activation values compiled below

Compound	System name	% Activation
COCC1CN(C2CCN(c3cc(C(=O)O)nc4c3c(C3CCC3)nn4-c3ccc(F)cc3)CC2)CCO1 (stereo not drawn) [compound 853]	ΔF508-CFTR (Homo sapiens, UniProt P13569, DEL508-508)	290.9%
O=C(O)c1cc(N2CCC(N3CCC(F)C3)CC2)c2c(C3CCC3)nn(-c3ccc(F)cc3)c2n1 (stereo not drawn) [compound 846]	ΔF508-CFTR (Homo sapiens, UniProt P13569, DEL508-508)	317.9%
CC(C)N1CNC(=O)C12CCN(c1cc(C(=O)O)nc3c1c(C1CCC1)nn3-c1ccccc1)CC2 [compound 469]	ΔF508-CFTR (Homo sapiens, UniProt P13569, DEL508-508)	198.95%
O=C(O)c1cc(N2CCC(C(F)(F)F)C2)c2c(C3CCC3)nn(-c3ccccc3)c2n1 (stereo not drawn) [compound 442]	ΔF508-CFTR (Homo sapiens, UniProt P13569, DEL508-508)	137.7%
COCC1CCN(c2cc(C(=O)O)nc3c2c(C(C)C)nn3-c2cc(C)nc(C)c2)CC1 [compound 677]	ΔF508-CFTR (Homo sapiens, UniProt P13569, DEL508-508)	67.38%
O=C(O)c1cc(N2CCC(CN3CCN4C[C@@H](F)C[C@H]4C3)CC2)c2c(C3CCC3)nn(-c3ccccc3)c2n1 [compound 838]	ΔF508-CFTR (Homo sapiens, UniProt P13569, DEL508-508)	240.3%
COCC1(F)CCN(c2cc(C(=O)O)nc3c2c(C2CCC2)nn3-c2ccccc2)C1 (stereo not drawn) [compound 508]	ΔF508-CFTR (Homo sapiens, UniProt P13569, DEL508-508)	104.6%
CC(C)N1CCC2CN(c3cc(C(=O)O)nc4c3c(C3CCC3)nn4-c3ccc(F)cc3)CCC21 (stereo not drawn) [compound 900]	ΔF508-CFTR (Homo sapiens, UniProt P13569, DEL508-508)	183.97%
CC(C)c1nn(-c2ccc(F)cc2)c2nc(C(=O)O)cc(N3CCN(C4CCN(C)CC4)CC3)c12 [compound 801]	ΔF508-CFTR (Homo sapiens, UniProt P13569, DEL508-508)	67.99%
N#CC1CCCN(C2CCN(c3cc(C(=O)O)nc4c3c(C3CCC3)nn4-c3ccc(F)cc3)CC2)C1 (stereo not drawn) [compound 871]	ΔF508-CFTR (Homo sapiens, UniProt P13569, DEL508-508)	355.1%
O=C(O)c1cc(N2CCN(CC(F)(F)F)CC2)c2c(C3CCC3)nn(-c3ccccc3)c2n1 [compound 470]	ΔF508-CFTR (Homo sapiens, UniProt P13569, DEL508-508)	147.5%
COCCN(CCOC)c1ccc(-c2cc(C(=O)O)nc3c2c(C(C)C)nn3-c2ccnc(N3CCOCC3)c2)cn1 [compound 524]	ΔF508-CFTR (Homo sapiens, UniProt P13569, DEL508-508)	134.7%
O=C(CN1CCN(c2cc(C(=O)O)nc3c2c(C2CCC2)nn3-c2ccccc2)CC1)NC1CCCCC1 [compound 540]	ΔF508-CFTR (Homo sapiens, UniProt P13569, DEL508-508)	142.2%
O=C(O)c1cc(N2CC[C@@H](F)[C@H](O)C2)c2c(C3CCC3)nn(-c3ccccc3)c2n1 [compound 465]	ΔF508-CFTR (Homo sapiens, UniProt P13569, DEL508-508)	91.04%
O=C(O)c1cc(N2CCC(CCN3CCOCC3)CC2)c2c(C3CCC3)nn(-c3ccccc3)c2n1 [compound 575]	ΔF508-CFTR (Homo sapiens, UniProt P13569, DEL508-508)	268.4%
